Property: DC50; scope: individual molecules
- EXPERIMENTAL_SYSTEM: mutant BRAF V600E (Homo sapiens, UniProt P15056, V600E)
- TEST_METHOD_NOTES: BRAF V600E HiBiT Degradation Assay in A375.10 cells
- ASSAY_CONDITIONS: read-out: HIBIT-Degradation A375.10 BRAF 2 hours DC50 nM; 2 hours, A375.10 cells
QUANTITY_NAME: DC50

MOLECULE: CCN(C)S(=O)(=O)Nc1ccc(F)c(Oc2ccc3ncn([C@H]4COC5(CCN(C(=O)CN6CCC(c7ccc(C8CCC(=O)NC8=O)cc7OS(=O)(=O)F)CC6)CC5)C4)c(=O)c3c2)c1C#N (some centres unmarked) [drawing 1190]
EXPERIMENTAL_SYSTEM: mutant BRAF V600E (Homo sapiens, UniProt P15056, V600E)
QUANTITY_NAME: DC50
ENDPOINT_VALUE: < 1000 nM
--
MOLECULE: CCN(C)S(=O)(=O)Nc1ccc(F)c(Oc2ccc3ncn([C@H]4COC5(CCN(C(=O)CN6CCC(c7ccc(N8CCC(=O)NC8=O)cc7OS(C)(=O)=O)CC6)CC5)C4)c(=O)c3c2)c1C#N [drawing 1205]
EXPERIMENTAL_SYSTEM: mutant BRAF V600E (Homo sapiens, UniProt P15056, V600E)
QUANTITY_NAME: DC50
ENDPOINT_VALUE: 1000 to 10000 nM
--
MOLECULE: CCN(C)S(=O)(=O)Nc1ccc(F)c(Oc2ccc3ncn([C@H]4COC5(CCN(C(=O)CN6CCC(c7ccc(OC8CCC(=O)NC8=O)cc7OS(C)(=O)=O)CC6)CC5)C4)c(=O)c3c2)c1C#N (some centres unmarked) [drawing 1204]
EXPERIMENTAL_SYSTEM: mutant BRAF V600E (Homo sapiens, UniProt P15056, V600E)
QUANTITY_NAME: DC50
ENDPOINT_VALUE: 1000 to 10000 nM
--
MOLECULE: CCN(C)S(=O)(=O)Nc1ccc(F)c(Oc2ccc3ncn([C@@H]4COC5(CCN(C(=O)CN6CCC(c7ccc(N8CCC(=O)NC8=O)cc7OS(C)(=O)=O)CC6)CC5)C4)c(=O)c3c2)c1C#N [drawing 1203]
EXPERIMENTAL_SYSTEM: mutant BRAF V600E (Homo sapiens, UniProt P15056, V600E)
QUANTITY_NAME: DC50
ENDPOINT_VALUE: > 10000 nM
--
MOLECULE: CCN(C)S(=O)(=O)Nc1ccc(F)c(Oc2ccc3ncn([C@H]4COC5(CCN(C(=O)CN6CCN(c7ccc(C8CCC(=O)NC8=O)cc7OS(=O)(=O)F)CC6)CC5)C4)c(=O)c3c2)c1C#N (some centres unmarked) [drawing 1199]
EXPERIMENTAL_SYSTEM: mutant BRAF V600E (Homo sapiens, UniProt P15056, V600E)
QUANTITY_NAME: DC50
ENDPOINT_VALUE: > 10000 nM

---

Property: IC50; scope: individual molecules
- EXPERIMENTAL_SYSTEM: cellular cereblon (CRBN) (Homo sapiens, UniProt Q96SW2)
- TEST_METHOD_NOTES: NanoBRET Target Engagement Assay, competition with pomalidomide tracer in 293T.116 cells
- ASSAY_CONDITIONS: NanoBRET TE 293T.116 CRBN 2 hours IC50 nM, 2 hours incubation, 293T.116 cells
QUANTITY_NAME: IC50

MOLECULE: O=C1CCN(c2ccc(N3CCNCC3)c(OS(=O)(=O)F)c2)C(=O)N1
QUANTITY_NAME: IC50
ENDPOINT_VALUE: > 10000 nM
//
MOLECULE: O=C1CCC(CNc2cccc(OS(=O)(=O)F)c2)C(=O)N1 (stereo not shown)
QUANTITY_NAME: IC50
ENDPOINT_VALUE: > 10000 nM
//
MOLECULE: Cn1nc(N2CCC(=O)NC2=O)c2cccc(OS(=O)(=O)F)c21
QUANTITY_NAME: IC50
ENDPOINT_VALUE: 1000 to 10000 nM
//
MOLECULE: Cc1ccc(OC2CCC(=O)NC2=O)cc1OS(=O)(=O)F (stereo not shown)
QUANTITY_NAME: IC50
ENDPOINT_VALUE: 1000 to 10000 nM
//
MOLECULE: Cn1nc(N2CCC(=O)NC2=O)c2cccc(S(=O)(=O)F)c21
QUANTITY_NAME: IC50
ENDPOINT_VALUE: < 1000 nM
//
MOLECULE: O=C1CCC(Nc2ccc(C3CCNCC3)c(OS(=O)(=O)F)c2)C(=O)N1 (stereo not shown)
QUANTITY_NAME: IC50
ENDPOINT_VALUE: < 1000 nM
//
MOLECULE: COc1ccc(OC2CCC(=O)NC2=O)cc1OS(=O)(=O)F (stereo not shown)
QUANTITY_NAME: IC50
ENDPOINT_VALUE: 1000 to 10000 nM
